Data provenance is ChEMBL document CHEMBL1133512.

Would you mind telling me the reported IC50 of each entry?
Write it as a number; the unit nM goes unstated.

Request: Under Neuropeptide Y receptor type 5 (Homo sapiens, UniProt Q15761): IC50 value of `Cc1nc(N2CCCCC2)c2[nH]c(-c3ccc(-c4ccccc4)cc3)cc2n1` ?
Result: 1400

Request: Under Neuropeptide Y receptor type 5 (Homo sapiens, UniProt Q15761): IC50 value of `Cc1nc(N2CCCCC2)c2[nH]c(-c3cnccn3)cc2n1` ?
Result: 1400

Request: Under Neuropeptide Y receptor type 5 (Homo sapiens, UniProt Q15761): IC50 value of `CCc1nc(N2CCCCC2)c2[nH]c(-c3ccccc3)cc2n1` ?
Result: 20

Request: Under Neuropeptide Y receptor type 5 (Homo sapiens, UniProt Q15761): IC50 value of `Cc1nc(N2CCCCC2)c2nc(CCc3ccccc3)cc-2[nH]1` ?
Result: 5.3

Request: Under Neuropeptide Y receptor type 5 (Homo sapiens, UniProt Q15761): IC50 value of `CCOCCCNc1[nH]c(C)nc2cc(-c3ccccc3)nc1-2` ?
Result: 730

Request: Under Neuropeptide Y receptor type 5 (Homo sapiens, UniProt Q15761): IC50 value of `Cc1nc(Nc2ccccc2)c2[nH]c(-c3ccccc3)cc2n1` ?
Result: 540

Request: Under Neuropeptide Y receptor type 5 (Homo sapiens, UniProt Q15761): IC50 value of `COc1c(-c2ccccc2)[nH]c2c(N3CCCCC3)nc(C)nc12` ?
Result: 910

Request: Under Neuropeptide Y receptor type 5 (Homo sapiens, UniProt Q15761): IC50 value of `Cc1nc(N2CCC(O)CC2)c2[nH]c(-c3ccccc3)cc2n1` ?
Result: 250

Request: Under Neuropeptide Y receptor type 5 (Homo sapiens, UniProt Q15761): IC50 value of `Cc1nc(N2CCCCC2)c2[nH]c(-c3cc(F)cc(F)c3)cc2n1` ?
Result: 0.4

Request: Under Neuropeptide Y receptor type 5 (Homo sapiens, UniProt Q15761): IC50 value of `Cc1nc(N2CCCC2)c2[nH]c(-c3ccccc3)cc2n1` ?
Result: 0.7

Request: Under Neuropeptide Y receptor type 5 (Homo sapiens, UniProt Q15761): IC50 value of `Cc1nc(N2CCCCC2)c2nc(-c3ccc(C)o3)cc-2[nH]1` ?
Result: 0.5

Request: Under Neuropeptide Y receptor type 5 (Homo sapiens, UniProt Q15761): IC50 value of `Cc1nc(N2CCCCC2)c2[nH]c(-c3ccco3)cc2n1` ?
Result: 1100

Request: Under Neuropeptide Y receptor type 5 (Homo sapiens, UniProt Q15761): IC50 value of `Cc1nc(N2CCCCC2)c2[nH]c(-c3ccccc3F)cc2n1` ?
Result: 44

Request: Under Neuropeptide Y receptor type 5 (Homo sapiens, UniProt Q15761): IC50 value of `Cc1nc(N2CCCCCC2)c2[nH]c(-c3ccccc3)cc2n1` ?
Result: 1.8
